The reported measurements were obtained from ChEMBL document CHEMBL1139722.

- Tgt: UniProtKB O75469
- Assay Explanation: Increase in human PXR activation expressed in CHO cells relative to rifampicin
- Assay type: cell-based
- Measurement Setup: CHO cells expressing human PXR, read-out: Activity
Readout Label: Emax (%)
Provide only the numeric value, understood in %.

COc1c(-c2ccccc2)nc2ccccc2c1C(=O)NN(c1ccccc1)c1ccccc1 68
COC(=O)N(NC(=O)c1c(OC)c(-c2ccccc2)nc2c(C(F)(F)F)cccc12)c1ccccc1 87
COC(=O)N(NC(=O)c1c(OC)c(-c2ccc(F)cc2)nc2ccccc12)c1ccccc1 54

Now examine the next entry.
Sample `COC(=O)N(NC(=O)c1c(C)c(-c2ccccc2)nc2ccccc12)c1ccccc1` ; Emax observed: 56

---

Reported IC50 values follow for various molecules
- Tgt: UniProt:P29371
- Sequence (P29371 whole entry): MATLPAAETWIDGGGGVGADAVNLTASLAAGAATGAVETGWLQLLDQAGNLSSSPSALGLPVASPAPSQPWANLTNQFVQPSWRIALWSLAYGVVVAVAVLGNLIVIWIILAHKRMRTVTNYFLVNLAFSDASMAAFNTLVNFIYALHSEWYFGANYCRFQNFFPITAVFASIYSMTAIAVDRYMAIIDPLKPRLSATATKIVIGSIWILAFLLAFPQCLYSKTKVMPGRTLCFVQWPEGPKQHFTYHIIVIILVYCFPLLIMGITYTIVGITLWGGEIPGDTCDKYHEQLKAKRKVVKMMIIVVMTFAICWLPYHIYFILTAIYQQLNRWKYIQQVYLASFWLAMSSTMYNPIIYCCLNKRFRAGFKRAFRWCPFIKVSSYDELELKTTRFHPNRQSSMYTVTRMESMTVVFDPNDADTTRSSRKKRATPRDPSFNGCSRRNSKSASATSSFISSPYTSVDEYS
- Assay Explanation: Displacement of [125I]neurokinin B from cloned human NK3 receptor expressed in CHO cells
- Format: cell-based

Reference set (3 entries):
COC(=O)N(NC(=O)c1c(OC)c(-c2ccccc2)nc2ccccc12)c1ccc(F)cc1 33 nM (antagonist)
COC(=O)N(NC(=O)c1cc(-c2ccccc2)nc2ccccc12)c1ccccc1 91 nM (antagonist)
COc1c(-c2ccccc2)nc2ccccc2c1C(=O)NN(C)c1ccccc1 57 nM (antagonist)

IC50 reading for `COC(=O)N(NC(=O)c1c(O)c(-c2ccccc2)nc2ccccc12)c1ccccc1` : 39 nM (antagonist)

---

- Tgt: PXR (NR1I2) (Homo sapiens, UniProt O75469)
- Sequence (O75469 whole entry): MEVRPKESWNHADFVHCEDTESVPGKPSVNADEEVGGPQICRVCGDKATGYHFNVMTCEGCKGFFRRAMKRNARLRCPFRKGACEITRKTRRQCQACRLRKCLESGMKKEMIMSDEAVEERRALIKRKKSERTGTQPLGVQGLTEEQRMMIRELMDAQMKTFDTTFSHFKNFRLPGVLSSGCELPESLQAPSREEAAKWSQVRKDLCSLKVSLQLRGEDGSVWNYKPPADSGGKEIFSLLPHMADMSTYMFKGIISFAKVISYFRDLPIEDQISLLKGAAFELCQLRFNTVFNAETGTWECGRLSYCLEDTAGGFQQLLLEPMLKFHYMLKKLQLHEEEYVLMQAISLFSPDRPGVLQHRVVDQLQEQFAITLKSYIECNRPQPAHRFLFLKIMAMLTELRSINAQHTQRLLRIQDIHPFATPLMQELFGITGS
- Assay Explanation: Increase in human PXR activation expressed in CHO cells relative to rifampicin
- Format: cell-based
- Measurement Setup: CHO cells expressing human PXR, read-out: Activity
Readout Label: Emax (%)
Please state the figure in %; there is no need to write the unit.

COC(=O)N(NC(=O)c1c(OC)c(-c2ccccc2)nc2cc(F)ccc12)c1ccccc1 62

In plain terms, `COC(=O)N(NC(=O)c1c(OC)c(-c2ccccc2)nc2ccccc12)c1cccc(F)c1` has a documented Emax of 54

Entry under test: `COC(=O)N(NC(=O)c1c(OC)c(-c2ccccc2)nc2cccc(F)c12)c1ccccc1` . Its Emax was 55
